Every entry's value here was drawn from paper PMC10397247.

# assaySystem: T1, 4H2865-AA
# T1 chain: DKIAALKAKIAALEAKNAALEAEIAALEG
# testProtocol: two-hybrid library CCmax;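 also: natural log of median RNA to DNA barcode read ratio; higher means stronger binding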
# measurementParameters: mean of both orientations
readoutName: interaction score

| binder | interaction score |
| --- | --- |
| DKIAALEAKIAALEAENAALKAEIAALKG [4H2330-AA] | -0.443 |

(P) DENAALKAKIAALEAKNAALEAEIAALKG [4H1842-AA]
(Q) DENAALKAKIAALKAEIAALEAKNAALKG [4H1864-AA]
(R) DENAALEAEIAALKAKNAALEAKIAALKG [4H1142-AA]
Query :: I would appreciate it if you could sort these 3 binders by interaction score, starting from the smallest number. Return value: ordered labels per request.
Result :: Q, P, R
(Q: -1.19, P: -0.0645, R: 1.33)
